- assayedSystem: CD3ε homodimer protein (human, UniProt P07766 23-126, limits assumed)
- Sequence (P07766 23-126 limits assumed): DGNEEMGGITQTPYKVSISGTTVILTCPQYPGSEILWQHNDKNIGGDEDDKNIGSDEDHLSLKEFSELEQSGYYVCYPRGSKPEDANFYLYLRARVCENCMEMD
- protocolText: SPR, immobilized CD3ε homodimer;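 further: biacore T200 surface plasmon resonance at 25 °C, antibody variants flowed as analytes over amine-coupled CD3ε homodimer on a CM4 chip, variant binding amount divided by that of GLS3000 antibody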
valueKind: ratio of amounts bound (vs GLS3000)
Reply briefly: the number, and no unit.

Recorded results for 2 binders are shown here.
GLS3000 H34S (antibody, name in Kabat numbering, V domains shown, one-arm format as m2) VH: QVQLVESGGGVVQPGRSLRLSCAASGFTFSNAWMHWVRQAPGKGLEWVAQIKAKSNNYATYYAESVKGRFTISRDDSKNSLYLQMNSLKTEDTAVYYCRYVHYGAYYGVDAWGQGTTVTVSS VL: DIVMTQSPLSLPVTPGEPASISCRSSQSLVHSNRNTYLSWYQQKPGQAPRLLIYKVSNRFSGVPDRFSGSGSGTDFTLKISRVEAEDVGVYYCGQGTQVPYTFGQGTKLEIK : 0.78
GLS3000 F55S (antibody, name in Kabat numbering, V domains shown, one-arm format as m2) VH: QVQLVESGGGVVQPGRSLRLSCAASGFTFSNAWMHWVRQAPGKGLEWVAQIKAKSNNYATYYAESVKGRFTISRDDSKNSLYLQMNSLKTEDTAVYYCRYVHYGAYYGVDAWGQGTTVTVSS VL: DIVMTQSPLSLPVTPGEPASISCRSSQSLVHSNRNTYLHWYQQKPGQAPRLLIYKVSNRSSGVPDRFSGSGSGTDFTLKISRVEAEDVGVYYCGQGTQVPYTFGQGTKLEIK : 0.69

Consider now this further binder.
Q) Requested read-out: ratio of amounts bound (vs GLS3000). Entry: GLS3000 N53G (antibody, name in Kabat numbering, V domains shown, one-arm format as m2) VH: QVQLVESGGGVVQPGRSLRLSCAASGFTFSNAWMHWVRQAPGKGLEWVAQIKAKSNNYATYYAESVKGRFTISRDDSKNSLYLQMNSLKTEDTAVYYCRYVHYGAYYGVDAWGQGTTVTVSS VL: DIVMTQSPLSLPVTPGEPASISCRSSQSLVHSNRNTYLHWYQQKPGQAPRLLIYKVSGRFSGVPDRFSGSGSGTDFTLKISRVEAEDVGVYYCGQGTQVPYTFGQGTKLEIK
A) 0.76
